# Test system: Escherichia coli
# test details: Antimicrobial activity against Escherichia coli MTCC 443 by broth microdilution technique
# Format: functional
reported endpoint: MIC50 (µg/mL)
I only need the number, in µg/mL, no unit after it.

Task: Find the measured MIC50 of O=C(O)c1cn(C2CC2)c2cc(N3CCNCC3)c(F)cc2c1=O with Escherichia coli as test system.
Output: 25

Task: Please report the measured MIC50 for Cc1ccc(C(=O)c2cnn(-c3ccc(F)c(F)c3)c2)c(O)c1 tested on Escherichia coli.
Output: 125

Task: Write down the reported MIC50 (system: Escherichia coli) of O=C(c1cnn(-c2ccc(F)c(F)c2)c1)c1cc(F)ccc1O
Output: 62.5

Task: Provide MIC50, system Escherichia coli, entry O=C(c1cnn(-c2ccc(F)c(F)c2)c1)c1cc(Br)ccc1O
Output: 500

* * *

# System: Bacillus subtilis
# test details: Antimicrobial activity against Bacillus subtilis MTCC 441 by broth microdilution technique
# Format: functional
Please go through the items and note down their MIC50.
The answer is to be given in µg/mL; state only the numeric part.

Task: Consider the compound Fc1ccc(-n2cc(-c3nc4cc(Cl)ccc4o3)cn2)cc1F and give its recorded MIC50.
Output: 200

Task: Return reported MIC50. Input compound: Fc1ccc(-n2cc(-c3nc4ccccc4o3)cn2)cc1F
Output: 200

Task: Note MIC50 for the compound shown: O=C(c1cnn(-c2ccc(F)c(F)c2)c1)c1cc(Br)ccc1O
Output: 100

Task: Using the record for O/N=C(/c1cnn(-c2ccc(F)c(F)c2)c1)c1cc(F)ccc1O , state its measured MIC50.
Output: 250

Task: Quote MIC50 reported for CCn1cc(C(=O)O)c(=O)c2cc(F)c(N3CCNCC3)cc21 please.
Output: 100

// provenance: ChEMBL document CHEMBL1221384
